Reference source: paper PMC5652037

molecular target: γ-secretase (catalytic subunit presenilin 1, PS1) (Cricetulus griseus); test: Aβ[…] secretion
Measurement Kind: pIC50
To interpret pIC50, take it as minus log10 of a concentration measured in moles per litre.

Challenge: What measured pIC50 goes with CC(C)[C@H](O)C(=O)N[C@@H](C)C(=O)N[C@@H]1C(=O)N(C)CCc2ccccc21 ?
Response given: 7.33
